experiment.notes: binders of probe aFSTL3 on microarray, primary screen, stem cell growth factor project, biochemical, small-molecule microarray, fluorescence 635/667 (AID 1064);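 also: measures binding of the biotinylated anti-FSTL3 antibody to printed compounds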
condition.info: higher = more signal
Give composite z-score for every item shown.
Lab note: jot down the number only; don't add units.

Provide only the value of recorded composite z-score for `Nc1cc(Br)ccc1C(=O)O` -0.0861

Provide only the value of recorded composite z-score for CCCCCCCCCCC(O)C1C=CC2C(=O)N(c3ccccc3)C(=O)C2N1Nc1ccccc1F (stereo unspecified) 0.51

Provide only the value of recorded composite z-score for O=C1C2C=CC(C(O)c3cc(C(F)(F)F)cc(C(F)(F)F)c3)N(Nc3ccccc3F)C2C(=O)N1c1ccccc1 (stereo unspecified) 0.835

Provide only the value of recorded composite z-score for `C=CCOC(=O)[C@H]1[C@@H]2C(=O)O[C@@H](c3ccccc3)[C@@H](c3ccccc3)N2[C@@H](c2ccc(OCCOC(=O)[C@H]3C[C@H]4C(=O)N[C@@H](CCCCNC(C)=O)C(=O)N4[C@H]3c3cccc(OCCO)c3)cc2)[C@]12C(=O)Nc1ccc(I)cc12` 0.276

Provide only the value of recorded composite z-score for COc1ccc(C(O)C2C=CC3C(=O)N(c4ccccc4)C(=O)C3N2Nc2ccccc2)cc1 (stereo unspecified) -0.0234

Provide only the value of recorded composite z-score for CC1CC/C=C\[C@H]2OC34C=CCN(CCN5CCOCC5)C(=O)[C@H]3N(C(C)CO)C(=O)[C@@H]4C2C(=O)O1 (stereo partly specified) -0.246

Provide only the value of recorded composite z-score for `COCCOC(=O)N1C(=O)[C@@]2(c3cc(C#CCNC(N)=O)ccc31)[C@H](c1ccc(OCCO)cc1)N1[C@H](c3ccccc3)[C@H](c3ccccc3)OC(=O)[C@H]1[C@@H]2C(=O)NC[C@H](O)c1ccccc1` -0.0349

Provide only the value of recorded composite z-score for C=C(C)C1CCC(C(O)C2C=CC3C(=O)N(C)C(=O)C3N2Nc2cc(OC)c(OC)c(OC)c2)CC1 (stereo unspecified) 0.735

Provide only the value of recorded composite z-score for `COCCOC(=O)N1C(=O)[C@@]2(c3cc(C#CC4(O)CCCCCC4)ccc31)[C@H](c1ccc(OCCO)cc1)N1[C@H](c3ccccc3)[C@H](c3ccccc3)OC(=O)[C@H]1[C@@H]2C(=O)Nc1nc2ccccc2s1` 0.676

Provide only the value of recorded composite z-score for O=C(NCC(O)CO)[C@@]1(CCS(=O)(=O)c2ccccc2)COC(c2ccc(OCCCO)cc2)=N1 (stereo partly specified) 1.05

Provide only the value of recorded composite z-score for `[N-]=[N+]=NC[C@H](Cc1ccccc1)NC(=O)c1ccccc1` -0.259
